molecular target: T1, HLA-A2/E6(29-38) tetramer (human; HPV 16); assay: flow cytometry, tetramer + anti-CD8; transfected mix of CD8- and CD8+ Jurkat-derived cells;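 also: CD4+ and CD4+/CD8+ cell mixtures transiently given TCR plasmids, analysed 48 h post-transfection by flow cytometry with E6(29-38)–HLA-A*02:01 tetramer plus anti-CD8 antibody co-stain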
T1 construct: also called E6(29-38) peptide-MHC tetramer; E6 tet
endpointLabel: % cells E6 tet+/CD8+ quadrant (%)
Please reply with the bare figure in % and do not write the unit itself.

The binder listed as TCR 28 (codon-optimized, cysteine-modified) (TCR, V domains shown) V domain 1: RKEVEQDPGPFNVPEGATVAFNCTYSNSASQSFFWYRQDCRKEPKLLMSVYSSGNEDGRFTAQLNRASQYISLLIRDSKLSDSATYLCVVRGGGTSYGKLTFGQGTILTVHP V domain 2: DVKVTQSSRYLVKRTGEKVFLECVQDMDHENMFWYRQDPGLGLRLIYFSYDVKMKEKGDIPEGYSVSREKKERFSLILESASTNQTSMYLCASSLWGRSSGNTIYFGEGSWLTVVE shows % cells E6 tet+/CD8+ quadrant equal to 13.1
